Target: HRH2 (Homo sapiens, UniProt P25021)
Construct: purchased Promega (in-house HiBiT-GPCR construct library, NanoBRET)
Sequence (P25021 whole entry): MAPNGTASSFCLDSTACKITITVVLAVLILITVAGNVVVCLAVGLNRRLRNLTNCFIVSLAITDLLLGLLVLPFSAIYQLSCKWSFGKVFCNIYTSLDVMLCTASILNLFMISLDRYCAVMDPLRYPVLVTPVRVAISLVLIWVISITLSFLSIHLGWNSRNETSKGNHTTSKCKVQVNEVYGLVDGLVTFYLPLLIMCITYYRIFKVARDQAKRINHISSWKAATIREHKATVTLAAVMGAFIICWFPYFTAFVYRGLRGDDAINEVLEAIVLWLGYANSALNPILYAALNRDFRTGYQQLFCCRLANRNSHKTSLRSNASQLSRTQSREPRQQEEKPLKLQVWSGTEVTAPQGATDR
Assay: NanoBRET screen HiBiT-HRH2 in HEK293
Assay type: binding
Settings: HRH2; tracer 0.1μM
Quantity name: NanoBRET Fold Response
A bare number is all that is needed in reply.

Compound: CCCn1c(=O)c2[nH]c(-c3ccc(OCC(=O)NCCNC(=O)CCOCCNC(=O)c4ccc(CNC(=O)CCc5ccc6n5[B-](F)(F)[N+]5=C(c7ccc[nH]7)C=CC5=C6)cc4)cc3)nc2n(CCC)c1=O [XAC-3-NB590]
NanoBRET Fold Response: 0.82

Compound: O=C(CCc1ccc2n1[B-](F)(F)[N+]1=C(c3ccc[nH]3)C=CC1=C2)NCCOCCOCCNC(=O)OCCOCCN1CCN(C2=Nc3ccccc3Sc3ccccc32)CC1 [Quetiapine-a-2-NB590]
NanoBRET Fold Response: 0.81

Compound: O=C(CCc1ccc2n1[B-](F)(F)[N+]1=C(c3ccc[nH]3)C=CC1=C2)NCc1ccc(C(=O)NCCOCCC(=O)N[C@@H]2CC[C@@]3(O)[C@H]4Cc5ccc(O)c6c5[C@@]3(CCN4CC3CC3)[C@H]2O6)cc1 [Naltrexone-3-NB590]
NanoBRET Fold Response: 0.85

Compound: COc1ccccc1N1CCN(CCCCN2C(=O)c3ccc(CNC(=O)CCOCCNC(=O)c4ccc(CNC(=O)CCc5ccc6n5[B-](F)(F)[N+]5=C(c7ccc[nH]7)C=CC5=C6)cc4)cc3C2=O)CC1 [NAN-190-3-NB590]
NanoBRET Fold Response: 1.07

Param item = COc1ccccc1N1CCN(CCCCN2C(=O)c3ccc(CNC(=O)CCOCCOCCOCCOCCNC(=O)CCc4ccc5n4[B-](F)(F)[N+]4=C(c6ccc[nH]6)C=CC4=C5)cc3C2=O)CC1 [NAN-190-2-NB590] ; retrieve measured NanoBRET Fold Response. 0.94

---

Below, each entry is listed with its recorded NanoBRET Fold Response.
Target: GABBR1 (Homo sapiens, UniProt Q9UBS5)
Construct: purchased Promega (in-house HiBiT-GPCR construct library, NanoBRET)
Sequence (Q9UBS5 15-961 limits assumed): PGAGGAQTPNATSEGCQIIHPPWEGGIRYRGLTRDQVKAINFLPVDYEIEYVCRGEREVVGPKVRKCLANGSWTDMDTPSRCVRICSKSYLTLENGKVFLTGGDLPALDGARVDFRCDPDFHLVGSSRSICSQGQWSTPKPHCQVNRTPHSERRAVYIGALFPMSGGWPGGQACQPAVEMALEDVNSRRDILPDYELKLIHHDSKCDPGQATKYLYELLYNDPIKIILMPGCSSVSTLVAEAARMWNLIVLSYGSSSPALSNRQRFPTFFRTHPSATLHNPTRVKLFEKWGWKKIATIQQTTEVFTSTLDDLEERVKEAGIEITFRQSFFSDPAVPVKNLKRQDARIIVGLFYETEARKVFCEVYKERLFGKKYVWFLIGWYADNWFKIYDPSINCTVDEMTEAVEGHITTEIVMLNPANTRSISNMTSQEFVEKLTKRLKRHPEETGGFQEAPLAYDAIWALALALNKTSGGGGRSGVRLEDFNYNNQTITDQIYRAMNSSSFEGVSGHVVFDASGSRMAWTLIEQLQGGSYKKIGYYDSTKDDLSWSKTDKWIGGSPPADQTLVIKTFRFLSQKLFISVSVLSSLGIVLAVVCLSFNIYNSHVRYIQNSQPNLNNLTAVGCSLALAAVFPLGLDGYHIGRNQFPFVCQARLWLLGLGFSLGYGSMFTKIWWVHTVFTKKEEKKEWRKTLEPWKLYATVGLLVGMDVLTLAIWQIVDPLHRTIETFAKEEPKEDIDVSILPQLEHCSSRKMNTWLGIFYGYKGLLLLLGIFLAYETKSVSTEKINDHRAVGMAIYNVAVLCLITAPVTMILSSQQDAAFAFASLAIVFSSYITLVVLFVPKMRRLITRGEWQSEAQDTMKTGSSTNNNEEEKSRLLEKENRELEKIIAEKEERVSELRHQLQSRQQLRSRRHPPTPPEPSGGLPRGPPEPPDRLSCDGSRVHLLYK
Assay: NanoBRET screen HiBiT-GABBR1 in HEK293
Assay type: binding
Conditions: GABBR1; tracer 1μM
Protocol: Each tracer candidate was screened across the entire library of HiBiT-GPCR constructs using NanoBRET as the detection modality. As depicted in Figure 4A, the specificity of interactions was evaluated through decrease in BRET due to competitive displacement of a bound tracer by excess parental compound. Each tracer was analyzed for binding to each HiBiT-GPCR fusion in the absence and in the presence of competing parental compound. […]
A bare number is all that is needed in reply.

Input smiles: O=C(CCc1ccc2n1[B-](F)(F)[N+]1=C(c3ccc[nH]3)C=CC1=C2)NCCOCCOCCNC(=O)OCCOCCN1CCN(C2=Nc3ccccc3Sc3ccccc32)CC1
Tested system: GABBR1 (Homo sapiens, UniProt Q9UBS5)
NanoBRET Fold Response: 0.93

Param item = CC(C)N(CC[C@H](c1ccccc1)c1cc(CCNC(=O)c2ccc(CNC(=O)CCc3ccc4n3[B-](F)(F)[N+]3=C(c5ccc[nH]5)C=CC3=C4)cc2)ccc1O)C(C)C ; retrieve measured NanoBRET Fold Response. 0.87

Also check O=C(CCOCCOCCOCCOCCNC(=O)CCc1ccc2n1[B-](F)(F)[N+]1=C(c3ccc[nH]3)C=CC1=C2)NCCCN1CCN(C2=Nc3ccccc3Oc3ccc(Cl)cc32)CC1 0.92

Also check CCCn1c(=O)c2[nH]c(-c3ccc(OCC(=O)NCCNC(=O)CCOCCNC(=O)c4ccc(CNC(=O)CCc5ccc6n5[B-](F)(F)[N+]5=C(c7ccc[nH]7)C=CC5=C6)cc4)cc3)nc2n(CCC)c1=O 1.00

Also check N#CN=C(NCCCOc1cccc(CN2CCCCC2)c1)NCCNC(=O)CCOCCOCCOCCOCCNC(=O)CCc1ccc2n1[B-](F)(F)[N+]1=C(c3ccc[nH]3)C=CC1=C2 1.00

Where these numbers come from: paper PMC8151276
